system: P32-ISH (Burkitt's Lymphoma); experiment: Bliss excess, mean over the matrix (fraction); higher = more synergy
MEASURED ATTRIBUTE: Bliss excess

INSERT INTO assay_data (compound, study_target, numeric_readout) VALUES
  ('CC1(C)CCC(CN2CCN(c3ccc(C(=O)NS(=O)(=O)c4ccc(NCC5CCOCC5)c([N+](=O)[O-])c4)c(Oc4cnc5[nH]ccc5c4)c3)CC2)=C(c2ccc(Cl)cc2)C1 [Venetoclax] + CN(C)CCCOc1ccc(-c2ccc3ncc4c(c3c2)n(C2CCOCC2)c(=O)n4C)cn1 [AZD0156] (first compound max 1 µM, 7x7, partner max 1 µM)', 'P32-ISH (Burkitt''s Lymphoma)', -0.0083),
  ('Cc1c2c(nn1C)CSCc1cc(n(C)n1)CSc1cc(c3ccccc3c1)OCCCc1c(C(=O)O)n(C)c3c-2c(Cl)ccc13 [AZD5991] + CN(C)CCCOc1ccc(-c2ccc3ncc4c(c3c2)n(C2CCOCC2)c(=O)n4C)cn1 [AZD0156] (first compound max 1 µM, 7x7, partner max 1 µM)', 'P32-ISH (Burkitt''s Lymphoma)', 0.0083);

----------
tested on: SNU-423 (Hepatocellular Carcinoma); assay: combination Emax (second highest fraction inhibited in the dose matrix, 72 h); higher = more inhibition; extreme values may be limits of the assay
Below is a list of entries, each paired with its recorded combination Emax value.
MEASURED ATTRIBUTE: combination Emax

INSERT INTO measurements (molecule, study_target, measured_attribute, result) VALUES
  ('CC1(C)CCC(CN2CCN(c3ccc(C(=O)NS(=O)(=O)c4ccc(NCC5CCOCC5)c([N+](=O)[O-])c4)c(Oc4cnc5[nH]ccc5c4)c3)CC2)=C(c2ccc(Cl)cc2)C1 [Venetoclax] + CN(C)CCCOc1ccc(-c2ccc3ncc4c(c3c2)n(C2CCOCC2)c(=O)n4C)cn1 [AZD0156] (first compound max 1 µM, 7x7, partner max 1 µM)', 'SNU-423 (Hepatocellular Carcinoma)', 'combination Emax', 0.271),
  ('Cc1c2c(nn1C)CSCc1cc(n(C)n1)CSc1cc(c3ccccc3c1)OCCCc1c(C(=O)O)n(C)c3c-2c(Cl)ccc13 [AZD5991] + CN(C)CCCOc1ccc(-c2ccc3ncc4c(c3c2)n(C2CCOCC2)c(=O)n4C)cn1 [AZD0156] (first compound max 1 µM, 7x7, partner max 1 µM)', 'SNU-423 (Hepatocellular Carcinoma)', 'combination Emax', 0.297);

----------
test system: SNU-407 (Colorectal Carcinoma); assay: Bliss excess, mean over the matrix (fraction); higher = more synergy
Use -0.04 as the dividing line for Bliss excess, with the line itself on the yes (1) side and lower values as no (0).

INSERT INTO assay_data (molecule, class) VALUES
  ('CC1(C)CCC(CN2CCN(c3ccc(C(=O)NS(=O)(=O)c4ccc(NCC5CCOCC5)c([N+](=O)[O-])c4)c(Oc4cnc5[nH]ccc5c4)c3)CC2)=C(c2ccc(Cl)cc2)C1 [Venetoclax] + C[C@@H](Nc1cc(F)cc(F)c1)c1cc(C(=O)N(C)C)cc2c(=O)cc(N3CCOCC3)oc12 [AZD8186] (first compound max 1 µM, 7x7, partner max 3 µM)', 'no (0)'),
  ('COc1nnc2ccc(N3CCC(c4ccc(OCCN5CCN(C)C(=O)[C@H]5C)cc4)CC3)nn12 [AZD5153] + CCN(CCO)CCCOc1ccc2c(Nc3cc(CC(=O)Nc4cccc(F)c4)[nH]n3)ncnc2c1 [AZD2811] (first compound max 1 µM, 7x7, partner max 1 µM)', 'no (0)'),
  ('CN(CCO)CC[C@H](CSc1ccccc1)Nc1ccc(S(=O)(=O)NC(=O)c2ccc(N3CCC([C@@H](O)c4ccccc4-c4ccc(Cl)cc4)CC3)cc2)cc1S(=O)(=O)C(F)(F)F [AZD4320] + Cc1cc2ncnn2cc1Nc1ncc2c(n1)n(C1CCOCC1)c(=O)n2C [AZD7648] (first compound max 1 µM, 7x7, partner max 10 µM)', 'yes (1)'),
  ('COc1cccc(OCCCN)c1-c1cc(Nc2cnc(C#N)cn2)n[nH]1 [Prexasertib] + CCc1c2c(nc3ccc(O)cc13)-c1cc3c(c(=O)n1C2)COC(=O)[C@]3(O)CC [SN-38] (first compound max 1 µM, 7x7, partner max 0.3 µM)', 'yes (1)'),
  ('CC1(C)CCC(CN2CCN(c3ccc(C(=O)NS(=O)(=O)c4ccc(NCC5CCOCC5)c([N+](=O)[O-])c4)c(Oc4cnc5[nH]ccc5c4)c3)CC2)=C(c2ccc(Cl)cc2)C1 [Venetoclax] + CN(C)CCCOc1ccc(-c2ccc3ncc4c(c3c2)n(C2CCOCC2)c(=O)n4C)cn1 [AZD0156] (first compound max 1 µM, 7x7, partner max 1 µM)', 'no (0)'),
  ('NC1(C(=O)N[C@@H](CCO)c2ccc(Cl)cc2)CCN(c2ncnc3[nH]ccc23)CC1 [Capivasertib] + C[C@@H]1COCCN1C2=NC(=NC(=C2)C3(CC3)[S@](=N)(=O)C)C4=C5C=CNC5=NC=C4 [AZD6738] (first compound max 10 µM, 7x7, partner max 10 µM)', 'no (0)'),
  ('CN(C)CCCOc1ccc(-c2ccc3ncc4c(c3c2)n(C2CCOCC2)c(=O)n4C)cn1 [AZD0156] + C[C@@H]1COCCN1C2=NC(=NC(=C2)C3(CC3)[S@](=N)(=O)C)C4=C5C=CNC5=NC=C4 [AZD6738] (first compound max 1 µM, 7x7, partner max 10 µM)', 'yes (1)'),
  ('C=CCn1c(=O)c2cnc(Nc3ccc(N4CCN(C)CC4)cc3)nc2n1-c1cccc(C(C)(C)O)n1 [AZD1775] + C1CN(CCC1(C(=O)N[C@@H](CCO)C2=CC=C(C=C2)Cl)N)C3=NC=NC4=C3C=CN4 [Capivasertib] (first compound max 3 µM, partner max 3 µM)', 'yes (1)');

----------
system: GAK (Melanoma); assay: Bliss excess, mean over the matrix (fraction); higher = more synergy
MEASURED ATTRIBUTE: Bliss excess

INSERT INTO assay_data (molecule, numeric_readout) VALUES
  ('CC(=O)c1c(C)c2cnc(Nc3ccc(N4CCNCC4)cn3)nc2n(C2CCCC2)c1=O [Palbociclib] + Cn1cnc2c(F)c(Nc3ccc(Br)cc3Cl)c(C(=O)NOCCO)cc21 [Selumetinib] (first compound max 10 µM, 7x7, partner max 10 µM)', 0.0221),
  ('Cc1c2c(nn1C)CSCc1cc(n(C)n1)CSc1cc(c3ccccc3c1)OCCCc1c(C(=O)O)n(C)c3c-2c(Cl)ccc13 [AZD5991] + Nc1ccn([C@@H]2O[C@H](CO)[C@@H](O)C2(F)F)c(=O)n1 [Gemcitabine] (first compound max 1 µM, 7x7, partner max 0.3 µM)', 0.01),
  ('CC(=O)Nc1cccc(-n2c(=O)n(C3CC3)c(=O)c3c(Nc4ccc(I)cc4F)n(C)c(=O)c(C)c32)c1 [Trametinib] + Cc1nc(-c2cn3c(n2)-c2ccc(-c4cnn(C(C)(C)C(N)=O)c4)cc2OCC3)n(C(C)C)n1 [Taselisib] (first compound max 1 µM, 7x7, partner max 10 µM)', 0.0805),
  ('C=CCn1c(=O)c2cnc(Nc3ccc(N4CCN(C)CC4)cc3)nc2n1-c1cccc(C(C)(C)O)n1 [AZD1775] + O=C(c1cc(Cc2n[nH]c(=O)c3ccccc23)ccc1F)N1CCN(C(=O)C2CC2)CC1 [Olaparib] (first compound max 1 µM, partner max 10 µM)', -0.0243),
  ('CC1(C)CCC(CN2CCN(c3ccc(C(=O)NS(=O)(=O)c4ccc(NCC5CCOCC5)c([N+](=O)[O-])c4)c(Oc4cnc5[nH]ccc5c4)c3)CC2)=C(c2ccc(Cl)cc2)C1 [Venetoclax] + CCN(CCO)CCCOc1ccc2c(Nc3cc(CC(=O)Nc4cccc(F)c4)[nH]n3)ncnc2c1 [AZD2811] (first compound max 1 µM, 7x7, partner max 1 µM)', -0.0537),
  ('CN(C)CCCOc1ccc(-c2ccc3ncc4c(c3c2)n(C2CCOCC2)c(=O)n4C)cn1 [AZD0156] + O=C(c1cc(Cc2n[nH]c(=O)c3ccccc23)ccc1F)N1CCN(C(=O)C2CC2)CC1 [Olaparib] (first compound max 3 µM, partner max 3 µM)', 0.0131),
  ('C[C@@H](c1ccc2nccn2c1)n1nnc2ncc(-c3cnn(C)c3)nc21 [Savolitinib] + CC1(C)CCC(CN2CCN(c3ccc(C(=O)NS(=O)(=O)c4ccc(NCC5CCOCC5)c([N+](=O)[O-])c4)c(Oc4cnc5[nH]ccc5c4)c3)CC2)=C(c2ccc(Cl)cc2)C1 [Venetoclax] (first compound max 1 µM, 7x7, partner max 1 µM)', -0.0762);

----------
tested on: NMC-G1 (Low Grade Glioma); assay: combination Emax (second highest fraction inhibited in the dose matrix, 72 h); higher = more inhibition; extreme values may be limits of the assay
Below is a list of entries, each paired with its recorded combination Emax value.
MEASURED ATTRIBUTE: combination Emax

INSERT INTO results (compound, measured_attribute, numeric_readout) VALUES
  ('CN(C)CCCOc1ccc(-c2ccc3ncc4c(c3c2)n(C2CCOCC2)c(=O)n4C)cn1 [AZD0156] + C[C@@H]1COCCN1C2=NC(=NC(=C2)C3(CC3)[S@](=N)(=O)C)C4=C5C=CNC5=NC=C4 [AZD6738] (first compound max 1 µM, 7x7, partner max 10 µM)', 'combination Emax', 0.269),
  ('C[C@@H]1COCCN1c1cc(C2([S@](C)(=N)=O)CC2)nc(-c2ccnc3[nH]ccc23)n1 [AZD6738] + O=C(c1cc(Cc2n[nH]c(=O)c3ccccc23)ccc1F)N1CCN(C(=O)C2CC2)CC1 [Olaparib] (first compound max 10 µM, 7x7, partner max 10 µM)', 'combination Emax', 0.392),
  ('CC1(C)CCC(CN2CCN(c3ccc(C(=O)NS(=O)(=O)c4ccc(NCC5CCOCC5)c([N+](=O)[O-])c4)c(Oc4cnc5[nH]ccc5c4)c3)CC2)=C(c2ccc(Cl)cc2)C1 [Venetoclax] + Cn1cnc2c(F)c(Nc3ccc(Br)cc3Cl)c(C(=O)NOCCO)cc21 [Selumetinib] (first compound max 1 µM, 7x7, partner max 3 µM)', 'combination Emax', 0.175);
